tested on: U251 CNS; assay: NCI tumour cell line growth inhibition, 48 h
MEASUREMENT LABEL: TGI

Solved entries:
>  <COMPOUND>
CCCC(=O)C(CC)/C(CCC(=O)N(Cc1ccccc1)Cc1ccccc1)=N/NC(=O)C[N+](C)(C)C (stereo not given)

>  <TGI>
> 100 µM

$$$$
>  <COMPOUND>
CN1C(=O)NC2(O)c3ccccc3C(=O)C12O (stereo not given)

>  <TGI>
> 100 µM

$$$$
>  <COMPOUND>
CCC(=O)[O-].CCC(=O)[O-].N.N.N.N.[Co+3].[O-][Cl+3]([O-])([O-])[O-]

>  <TGI>
> 100 µM

$$$$
>  <COMPOUND>
CP(=O)(CCSc1ccccc1)c1ccccc1 (stereo not given)

>  <TGI>
> 100 µM

$$$$
>  <COMPOUND>
O=C(CN1C(=O)c2ccccc2C1=O)OC1C=CCCC1 (stereo not given)

>  <TGI>
> 100 µM

$$$$

I need TGI for every entry listed below, if you could help.
1. S=C1SC2(CCCCCC2)NC2=C1CCCCC2
2. Nc1nc(SCCC/C=C/B(O)O)nc2c1ncn2C1OC(CO)C(O)C1O (stereo not given)

> 100 µM
> 243 µM
